Molecular target: hNudt16E76Q (Homo sapiens, UniProt Q96DE0, E76Q)
Construct: 4xHis (four added histidines); made in house; host or cells: E. coli Rosetta 2 (DE3), pET16b
Sequence (Q96DE0 whole entry E76Q): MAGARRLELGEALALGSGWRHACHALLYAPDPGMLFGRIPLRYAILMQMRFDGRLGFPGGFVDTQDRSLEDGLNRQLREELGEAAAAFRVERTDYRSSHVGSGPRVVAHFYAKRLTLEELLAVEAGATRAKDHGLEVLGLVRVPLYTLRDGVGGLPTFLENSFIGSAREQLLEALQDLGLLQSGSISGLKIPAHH
Assay: Microscale thermophoresis (MST) binding, two independent binding sites model
Conditions: second, weaker binding site; read-out: Kd2
Description: Binding constants for protein–ligand pairs were established using the MST method. […] After 10 min of pre-incubation, dye-labeled protein–ligand samples were manually loaded into Monolith™ NT.115 Premium Capillaries (NanoTemper Technologies, München, Germany) and analyzed using the Monolith NT.115 (NanoTemper Technologies). […] For the dissociation constants obtained, we also calculated the free energy associated with the dissociation of the complex ΔGdiss according to the equation: ΔGdiss=−RTlnKd.
pKd: −log10 of the molar value.
Hi, to clarify the labels: T covers pKd from 5 upward, F covers anything below 5.

A selection of reference data follows.
{"compound": "Nc1nc2c(ncn2[C@@H]2O[C@H](COP(=O)(O)OP(=O)(O)O)[C@@H](O)[C@H]2O)c(=O)[nH]1 [GDP, Guanosine diphosphate]", "class_assignment": "F"}
{"compound": "O=c1[nH]cnc2c1ncn2[C@@H]1O[C@H](COP(=O)(O)OP(=O)(O)O)[C@@H](O)[C@H]1O [IDP, Inosine diphosphate]", "class_assignment": "T"}
{"compound": "Cn1c[n+]([C@@H]2O[C@H](COP(=O)(O)OP(=O)([O-])OP(=O)(O)OC[C@H]3O[C@@H](n4cnc5c(=O)[nH]c(N)nc54)[C@H](O)[C@@H]3O)[C@@H](O)[C@H]2O)c2nc(N)[nH]c(=O)c21 [m^7GpppG]", "class_assignment": "F"}
{"compound": "Nc1nc2c(ncn2[C@@H]2O[C@H](COP(=O)(O)OP(=O)(O)OC[C@H]3O[C@@H](n4cnc5c(=O)[nH]c(N)nc54)[C@H](O)[C@@H]3O)[C@@H](O)[C@H]2O)c(=O)[nH]1 [GppG]", "class_assignment": "T"}
{"compound": "CC(C)(COP(=O)(O)OP(=O)(O)OC[C@H]1O[C@@H](n2cnc3c(N)ncnc32)[C@H](O)[C@@H]1O)[C@@H](O)C(=O)NCCC(=O)NCCS [dpCoA, Dephospho-coenzyme A]", "class_assignment": "F"}

Is pKd at least 5? Consider C[n+]1cn([C@@H]2O[C@H](COP(=O)([O-])OP(=O)(O)OC[C@H]3O[C@@H](n4cnc5c(=O)[nH]c(N)nc54)[C@H](O)[C@@H]3O)[C@@H](O)[C@H]2O)c2nc(N)[nH]c(=O)c21 [m^7GppG]
F

====

Molecular target: hNudt16E76Q (Homo sapiens, UniProt Q96DE0, E76Q)
Construct: 4xHis (four added histidines); made in house; host or cells: E. coli Rosetta 2 (DE3), pET16b
Assay: Microscale thermophoresis (MST) binding, two independent binding sites model
Details: stronger binding site, 50 nM dye-labeled protein; read-out: Kd1
# Kd per entry
Write the answer as a number in µM, unit excluded.

Entry Nc1nc2c(ncn2[C@@H]2O[C@H](COP(=O)(O)OP(=O)(O)O)[C@@H](O)[C@H]2O)c(=O)[nH]1 [GDP, Guanosine diphosphate] — recorded Kd = 0.258

Entry `Nc1ncnc2c1ncn2[C@@H]1O[C@H](COP(=O)(O)OP(=O)(O)OC[C@H]2O[C@@H](n3cnc4c(N)ncnc43)[C@H](O)[C@@H]2O)[C@@H](O)[C@H]1O` — recorded Kd = 833

Entry `C[n+]1cn([C@@H]2O[C@H](COP(=O)([O-])OP(=O)(O)OC[C@H]3O[C@@H](n4cnc5c(=O)[nH]c(N)nc54)[C@H](O)[C@@H]3O)[C@@H](O)[C@H]2O)c2nc(N)[nH]c(=O)c21` — recorded Kd = 0.22
